meta.source: the supplement of paper PMC11061612

- Test system: NCI-H1944 (Lung Adenocarcinoma);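 note: after 72 h of two-drug dosing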
- assay_remarks: Bliss excess, mean over the matrix (fraction); higher = more synergy
Kindly state Bliss excess for each of the entries shown.
# respond with the number and nothing more

Please tell me the measured Bliss excess for NC1(C(=O)N[C@@H](CCO)c2ccc(Cl)cc2)CCN(c2ncnc3[nH]ccc23)CC1 [Capivasertib] + COc1nnc2ccc(N3CCC(c4ccc(OCCN5CCN(C)C(=O)[C@H]5C)cc4)CC3)nn12 [AZD5153] (first compound max 10 µM, 7x7, partner max 1 µM) ; system: NCI-H1944 (Lung Adenocarcinoma).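 Note: after 72 h of two-drug dosing.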
-0.0124

Please tell me the measured Bliss excess for CN(CCO)CC[C@H](CSc1ccccc1)Nc1ccc(S(=O)(=O)NC(=O)c2ccc(N3CCC([C@@H](O)c4ccccc4-c4ccc(Cl)cc4)CC3)cc2)cc1S(=O)(=O)C(F)(F)F [AZD4320] + C[C@@H]1COCCN1C2=NC(=NC(=C2)C3(CC3)[S@](=N)(=O)C)C4=C5C=CNC5=NC=C4 [AZD6738] (first compound max 1 µM, 7x7, partner max 10 µM) ; system: NCI-H1944 (Lung Adenocarcinoma).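 Note: after 72 h of two-drug dosing.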
-0.0227

Please tell me the measured Bliss excess for CN(C)CCCOc1ccc(-c2ccc3ncc4c(c3c2)n(C2CCOCC2)c(=O)n4C)cn1 [AZD0156] + CCN(CCO)CCCOc1ccc2c(Nc3cc(CC(=O)Nc4cccc(F)c4)[nH]n3)ncnc2c1 [AZD2811] (first compound max 1 µM, 7x7, partner max 1 µM) ; system: NCI-H1944 (Lung Adenocarcinoma).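 Note: after 72 h of two-drug dosing.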
-0.0077

* * *

Kindly state combination Emax for each of the entries shown.
- System: BC-1 (B-Cell Non-Hodgkin's Lymphoma)
- assay_remarks: combination Emax (second highest fraction inhibited in the dose matrix, 72 h); higher = more inhibition; extreme values may be limits of the assay
# respond with the number and nothing more

Please look at this compound and report its combination Emax: CS(=O)(=O)CCNCc1ccc(-c2ccc3ncnc(Nc4ccc(OCc5cccc(F)c5)c(Cl)c4)c3c2)o1 [Lapatinib] + Cn1cnc2c(F)c(Nc3ccc(Br)cc3Cl)c(C(=O)NOCCO)cc21 [Selumetinib] (first compound max 10 µM, 7x7, partner max 10 µM)
0.787

Please look at this compound and report its combination Emax: COc1cc2ncnc(Nc3ccc(F)c(Cl)c3)c2cc1OCCCN1CCOCC1 [Gefitinib] + CC(C)n1c(=O)n(C)c2cnc3cc(F)c(-c4ccc(OCCCN5CCCCC5)nc4)cc3c21 [AZD1390] (first compound max 10 µM, 7x7, partner max 0.3 µM)
0.601

Please look at this compound and report its combination Emax: CC1(C)CCC(CN2CCN(c3ccc(C(=O)NS(=O)(=O)c4ccc(NCC5CCOCC5)c([N+](=O)[O-])c4)c(Oc4cnc5[nH]ccc5c4)c3)CC2)=C(c2ccc(Cl)cc2)C1 [Venetoclax] + COc1cc(Nc2ncc3c(n2)-c2ccc(Cl)cc2C(c2c(F)cccc2OC)=NC3)ccc1C(=O)O [Alisertib] (first compound max 1 µM, 7x7, partner max 10 µM)
0.943

Please look at this compound and report its combination Emax: Cc1c2c(nn1C)CSCc1cc(n(C)n1)CSc1cc(c3ccccc3c1)OCCCc1c(C(=O)O)n(C)c3c-2c(Cl)ccc13 [AZD5991] + CS(=O)(=O)CCNCc1ccc(-c2ccc3ncnc(Nc4ccc(OCc5cccc(F)c5)c(Cl)c4)c3c2)o1 [Lapatinib] (first compound max 1 µM, 7x7, partner max 10 µM)
1

Please look at this compound and report its combination Emax: CC(=O)c1c(C)c2cnc(Nc3ccc(N4CCNCC4)cn3)nc2n(C2CCCC2)c1=O [Palbociclib] + Cn1cnc2c(F)c(Nc3ccc(Br)cc3Cl)c(C(=O)NOCCO)cc21 [Selumetinib] (first compound max 10 µM, 7x7, partner max 10 µM)
0.91

Please look at this compound and report its combination Emax: N#Cc1cnc(Nc2cc(NC[C@H]3CNCCO3)c(C(F)(F)F)cn2)cn1 [SRA737] + C=CCn1c(=O)c2cnc(Nc3ccc(N4CCN(C)CC4)cc3)nc2n1-c1cccc(C(C)(C)O)n1 [AZD1775] (first compound max 10 µM, partner max 1 µM)
0.988

Please look at this compound and report its combination Emax: CC1(C)CCC(CN2CCN(c3ccc(C(=O)NS(=O)(=O)c4ccc(NCC5CCOCC5)c([N+](=O)[O-])c4)c(Oc4cnc5[nH]ccc5c4)c3)CC2)=C(c2ccc(Cl)cc2)C1 [Venetoclax] + Cc1cc2ncnn2cc1Nc1ncc2c(n1)n(C1CCOCC1)c(=O)n2C [AZD7648] (first compound max 1 µM, 7x7, partner max 10 µM)
0.516

Please look at this compound and report its combination Emax: CN(CCO)CC[C@H](CSc1ccccc1)Nc1ccc(S(=O)(=O)NC(=O)c2ccc(N3CCC([C@@H](O)c4ccccc4-c4ccc(Cl)cc4)CC3)cc2)cc1S(=O)(=O)C(F)(F)F [AZD4320] + Nc1ccn([C@@H]2O[C@H](CO)[C@@H](O)C2(F)F)c(=O)n1 [Gemcitabine] (first compound max 1 µM, 7x7, partner max 0.3 µM)
0.974

Please look at this compound and report its combination Emax: Cc1nc(-c2cn3c(n2)-c2ccc(-c4cnn(C(C)(C)C(N)=O)c4)cc2OCC3)n(C(C)C)n1 [Taselisib] + O=C(Nc1ccc2[nH]nc(-c3ccncc3)c2c1)[C@@H]1CCN(CC(=O)N2CCN(c3ccc(-c4ncccn4)cc3)CC2)C1 [SCH772984] (first compound max 10 µM, 7x7, partner max 5 µM)
0.652

Please look at this compound and report its combination Emax: CN(CCO)CC[C@H](CSc1ccccc1)Nc1ccc(S(=O)(=O)NC(=O)c2ccc(N3CCC([C@@H](O)c4ccccc4-c4ccc(Cl)cc4)CC3)cc2)cc1S(=O)(=O)C(F)(F)F [AZD4320] + Cc1cc2ncnn2cc1Nc1ncc2c(n1)n(C1CCOCC1)c(=O)n2C [AZD7648] (first compound max 1 µM, 7x7, partner max 10 µM)
0.509
